Assay: Stability in mouse hepatocytes
Assay type: in vitro ADME
Settings: t1/2, Mouse Hepatocytes, Diastereoisomer B
OBSERVABLE: half-life at 5 µM

Consider the reported half-life at 5 µM for these molecules:
>>> data_value("COC(=O)[C@H](C)NP1(=O)OCC(C)(C)[C@H](C(=O)NCCC(=O)OCCN2CCCC2)O1 (stereo partly drawn) [compound 19]")
"18.6 min"
>>> data_value("COC(=O)CCNC(=O)[C@@H]1OP(=O)(NCCC(=O)OCc2ccccc2)OCC1(C)C (stereo partly drawn) [compound 117]")
"< 15 min"
>>> data_value("COC(=O)CCNC(=O)[C@@H]1OP(=O)(N[C@@H](C)C(=O)OC[C@H]2CCC(=O)N2)OCC1(C)C (stereo partly drawn) [compound 23]")
"33 min"
>>> data_value("CC(C)(C)C(=O)OCO[P@@]1(=O)OCC(C)(C)[C@H](C(=O)NCCC(=O)OCCS(C)(=O)=O)O1 (single isomer, unassigned) [Compound No. 78]")
"< 15 min"
>>> data_value("COC(=O)CCNC(=O)[C@@H]1OP(=O)(N[C@@H](C)C(=O)OCc2cc(C)cc(C)c2)OCC1(C)C (stereo partly drawn) [compound 3]")
"< 15 min"
>>> data_value("COC(=O)CCNC(=O)[C@@H]1OP(=O)(N[C@@H](C)C(=O)OCCc2ccccc2)OCC1(C)C (stereo partly drawn) [Compound No. 2]")
"26.4 min"

Tell me its half-life at 5 µM given COC(=O)[C@H](C)NP1(=O)OCC(C)(C)[C@H](C(=O)NCCC(=O)OCc2cc(C)on2)O1 (stereo partly drawn) [compound 21] as the entry.
< 15 min

Give recorded half-life at 5 µM. COC(=O)CCNC(=O)[C@@H]1OP(=O)(N[C@@H](Cc2ccccc2)C(=O)OCc2ccccc2)OCC1(C)C (stereo partly drawn) [compound 10]
< 15 min

Specify measured half-life at 5 µM for COC(=O)CCNC(=O)[C@@H]1OP(=O)(N[C@@H](C)C(=O)OCc2cccnc2)OCC1(C)C (stereo partly drawn) [compound 24] .
< 15 min

* * *

Experiment: Stability in human hepatocytes
Format: in vitro ADME
Details: t1/2, Human Hepatocytes, Diastereoisomer A
Recorded half-life at 5 µM for the following compounds

Field: example entries. Status: answers known.
>>> data_value("COC(=O)CCNC(=O)[C@@H]1O[P@](=O)(OCc2ccccc2)OCC1(C)C")
"< 15 min"
>>> data_value("COC(=O)CCNC(=O)[C@@H]1OP(=O)(N[C@@H](Cc2cccnc2)C(=O)OC)OCC1(C)C (some centres unmarked)")
"> 240 min"
>>> data_value("COC(=O)CCNC(=O)[C@@H]1OP(=O)(OCOC(C)=O)OCC1(C)C (some centres unmarked)")
"< 15 min"
>>> data_value("COC(=O)CCNC(=O)[C@@H]1OP(=O)(OCOC(=O)C(C)(C)C)OCC1(C)C (some centres unmarked)")
"< 15 min"
>>> data_value("CCC(CC)C(=O)OCOP1(=O)OCC(C)(C)[C@H](C(=O)NCCC(=O)OC)O1 (some centres unmarked)")
"< 15 min"

As a next step, examine the compound that follows.
Determine from records and report half-life at 5 µM for COC(=O)CCNC(=O)[C@@H]1OP(=O)(N[C@@H](C)C(=O)OCc2cccnc2)OCC1(C)C (some centres unmarked)
> 240 min

Values compiled from patent US10364263B2.
